meta.source: patent US20240132593A1

- TEST SYSTEM: Antibody No. 245.1
- MEASUREMENT DESCRIPTION: peptide blocking ELISA on plate-bound VISTA, peptide 20 ug/mL
Binary call on percent reduction in ELISA signal with cut-off 8%: strictly below means Met, and equality or higher means Not met.

>>> class_label("NTSHDLAQRHGLESA (synthetic overlapping peptide from human VISTA) [Spiked Peptide 16 (NTSHDLAQRHGLESA)]")
"Not met"
>>> class_label("PIRNLTFQDLHLHHG (synthetic overlapping peptide from human VISTA) [Spiked Peptide 12 (PIRNLTFQDLHLHHG)]")
"Not met"
>>> class_label("LYCCLVVEIRHHHSE (synthetic overlapping peptide from human VISTA) [Spiked Peptide 23 (LYCCLVVEIRHHHSE)]")
"Not met"

Check if percent reduction in ELISA signal falls below 8% for MRNLTLLDSGLYCCL (synthetic overlapping peptide from human VISTA) [Spiked Peptide 21 (MRNLTLLDSGLYCCL)] .
Met
